- System: L. acidophilus NCFM
- procedure-summary: RNA-seq transcriptional analysis of L. acidophilus NCFM growing on plant glycosides
- Assay type: cell-based, Lactobacillus acidophilus
- setup-conditions: LBA0466 Hypothetical protein, COG C
Listing: Log2 differential normalized TPM ratio compared to glucose of selected compounds
Would you mind answering with just the numeric figure?

{"columns": ["chemical-smiles", "measurement-target", "recorded-value"],
 "data": [
  ["O=c1ccc2cc(O[C@@H]3O[C@H](CO)[C@@H](O)[C@H](O)[C@H]3O)c(O)cc2o1", "L. acidophilus NCFM", 2],
  ["OCc1ccccc1O[C@@H]1O[C@H](CO)[C@@H](O)[C@H](O)[C@H]1O", "L. acidophilus NCFM", 1.3],
  ["N#C[C@H](O[C@@H]1O[C@H](CO[C@@H]2O[C@H](CO)[C@@H](O)[C@H](O)[C@H]2O)[C@@H](O)[C@H](O)[C@H]1O)c1ccccc1", "L. acidophilus NCFM", 5.2]
]}

Ask: Short answer please: Log2 differential normalized TPM ratio compared to glucose, L. acidophilus NCFM, entry OC[C@H]1O[C@@H](O[C@H]2[C@H](O)[C@@H](O)[C@@H](O)O[C@@H]2CO)[C@H](O)[C@@H](O)[C@H]1O
Result: 1.5
